These measurements were taken from patent US20250368648A1.

# System: THP1 cells
# Method: Combination drug screening, Cell Titer Glo, THP1 cells;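 also: luminescence read out in 1536-well plates seeded with 500 THP1 cells per well, each drug spanning a 10-point concentration range in the combination matrix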
# Experimental context: sum score; listed as compound in combination with Compound 46a; THP1 cells; 10 × 10 dataset; 48 hours
Decide using Excess HSA Score alone. Strictly below 300: fulfilled. Equal to or above 300: not fulfilled.

Consider the worked cases shown below.
[ask] Does N#Cc1ccnc(N2C(=O)CC[C@H]2C(=O)N(c2cncc(F)c2)[C@H](C(=O)NC2CC(F)(F)C2)c2ccccc2Cl)c1 [Ivosidenib, ivosidenib] have Excess HSA Score strictly under 300?
[reply] fulfilled

[ask] // repeat for COCC1(CO)C(=O)C2CCN1CC2 (stereo not shown) [Eprenetapopt/APR-246, APR-246 (Eprenetapopt)] and report
[reply] not fulfilled

***
[ask] Does CC(C)[C@@H](CS(=O)(=O)C(C)C)N1C(=O)[C@@](C)(CC(=O)O)C[C@H](c2cccc(Cl)c2)[C@H]1c1ccc(Cl)cc1 [AMG-232, navtemadlin] have Excess HSA Score strictly under 300?
[reply] fulfilled

[ask] // repeat for CC(C)Nc1cc(-c2c[nH]c(C(=O)N[C@H](CO)c3cccc(Cl)c3)c2)c(Cl)cn1 [Ulixertinib, ulixertinib] and report
[reply] fulfilled

[ask] // repeat for CC1(C)CCC(CN2CCN(c3ccc(C(=O)NS(=O)(=O)c4ccc(NCC5CCOCC5)c([N+](=O)[O-])c4)c(Oc4cnc5[nH]ccc5c4)c3)CC2)=C(c2ccc(Cl)cc2)C1 [Venetoclax (ABT-199), Venetoclax] and report
[reply] fulfilled

[ask] // repeat for CC(=O)c1c(C)c2cnc(Nc3ccc(N4CCNCC4)cn3)nc2n(C2CCCC2)c1=O [Palbociclib] and report
[reply] fulfilled

[ask] // repeat for Nc1cccc2c1CN(C1CCC(=O)NC1=O)C2=O (stereo not shown) [Lenalidomide] and report
[reply] not fulfilled

====

# Tested on: MOLM14 (D835Y) cells
# Method: Combination drug screening, Cell Titer Glo, MOLM14 (D835Y) cells;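 also: MOLM14 cells with FLT3 ITD plus D835Y, 500 per well in 1536-well plates, 10-point dose ranges, luminescent viability after 48 h, negative Excess HSA indicates synergy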
# Experimental context: combination therapy of CG-806 (a FLT3/BTK inhibitor) and the named additional compound; MOLM14(D835Y) cells; 110 × 10 dataset
# label = y if Sum Excess HSA Score >= -200 else n

Consider the worked cases shown below.
[ask] Would you say CC(C)Nc1cc(-c2c[nH]c(C(=O)N[C@H](CO)c3cccc(Cl)c3)c2)c(Cl)cn1 [Ulixertinib, ulixertinib] shows Sum Excess HSA Score at minimum -200?
[reply] y

[ask] // repeat for CC1(C)CCC(CN2CCN(c3ccc(C(=O)NS(=O)(=O)c4ccc(NCC5CCOCC5)c([N+](=O)[O-])c4)c(Oc4cnc5[nH]ccc5c4)c3)CC2)=C(c2ccc(Cl)cc2)C1 [Venetoclax (ABT-199), Venetoclax] and report
[reply] n

[ask] // repeat for C[C@]12C=CC(=O)C=C1CC[C@@H]1[C@@H]2[C@@H](O)C[C@@]2(C)[C@H]1CC[C@]2(O)C(=O)CO [Prednisolone, prednisolone] and report
[reply] n

[ask] // repeat for NC1(C(=O)N[C@@H](CCO)c2ccc(Cl)cc2)CCN(c2nc[nH]c3nccc2-3)CC1 [AZD-5363, capivasertib] and report
[reply] n

[ask] // repeat for COCC1(CO)C(=O)C2CCN1CC2 (stereo not drawn) [Eprenetapopt/APR-246, APR-246 (Eprenetapopt)] and report
[reply] n

***
[ask] Would you say CC(=O)c1c(C)c2cnc(Nc3ccc(N4CCNCC4)cn3)nc2n(C2CCCC2)c1=O [Palbociclib] shows Sum Excess HSA Score at minimum -200?
[reply] n

====

# System: FLT3 (Homo sapiens, UniProt P36888)
# Sequence (P36888 27-993): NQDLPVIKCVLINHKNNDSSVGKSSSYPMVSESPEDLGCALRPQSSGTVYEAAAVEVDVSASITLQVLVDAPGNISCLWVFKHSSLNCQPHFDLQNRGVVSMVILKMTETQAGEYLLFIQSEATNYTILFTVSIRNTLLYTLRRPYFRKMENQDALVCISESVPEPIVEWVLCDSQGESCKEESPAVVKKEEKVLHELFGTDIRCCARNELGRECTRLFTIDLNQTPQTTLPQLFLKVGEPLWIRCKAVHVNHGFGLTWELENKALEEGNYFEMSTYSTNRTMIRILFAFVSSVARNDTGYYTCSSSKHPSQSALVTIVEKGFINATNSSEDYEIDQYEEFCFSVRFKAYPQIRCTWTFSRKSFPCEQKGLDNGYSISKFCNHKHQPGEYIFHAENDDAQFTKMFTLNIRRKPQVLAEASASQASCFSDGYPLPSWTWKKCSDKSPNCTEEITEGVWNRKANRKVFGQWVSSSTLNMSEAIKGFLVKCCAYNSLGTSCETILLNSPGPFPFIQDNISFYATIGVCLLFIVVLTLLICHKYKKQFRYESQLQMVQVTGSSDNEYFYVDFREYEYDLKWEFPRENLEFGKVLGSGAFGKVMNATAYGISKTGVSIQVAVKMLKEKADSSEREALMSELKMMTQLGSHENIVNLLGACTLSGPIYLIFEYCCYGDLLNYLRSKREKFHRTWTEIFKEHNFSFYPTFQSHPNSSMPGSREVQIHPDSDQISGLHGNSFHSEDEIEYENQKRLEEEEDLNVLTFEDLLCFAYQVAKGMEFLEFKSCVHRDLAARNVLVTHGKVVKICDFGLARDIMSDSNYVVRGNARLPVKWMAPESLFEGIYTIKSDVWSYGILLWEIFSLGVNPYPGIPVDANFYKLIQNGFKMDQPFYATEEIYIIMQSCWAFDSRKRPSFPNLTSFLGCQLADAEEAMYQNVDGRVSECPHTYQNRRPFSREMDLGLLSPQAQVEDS
# Method: Reaction Biology NanoBRET target engagement assay, FLT3
# Assay type: cell-based
# Experimental context: HEK-293 cells transfected with Kinase-NanoLuc fusion vector, live cells
Endpoint: pIC50
Give bare numbers, as −log10 of the molar value.

A selection of reference data follows.
[ask] Query (compound): COc1cc2ncc(-c3nc(N[C@H]4CNCC[C@@H]4F)c(F)cc3F)n2nc1C1CC2(CCC2)C1 [Compound 10a] ; field requested: pIC50
[reply] 7.20

[ask] // repeat for COc1cc2ncc(-c3nc(N[C@H]4CNCC[C@@H]4F)c(F)cc3F)n2nc1C(C)(O)C(F)(F)F (single isomer, unassigned) [Compound 77a] and report
[reply] 8.70

Note: attention shifts to another entry.
[ask] Query (compound): COc1cc2ncc(-c3nc(N[C@@H]4CCCNC4)c(F)cc3F)n2nc1C(C)(O)C(F)(F)F (single isomer, unassigned) [Compound 81a] ; field requested: pIC50
[reply] 8.30

====

# System: UniProt Q9NWZ3
# Sequence (Q9NWZ3 whole entry): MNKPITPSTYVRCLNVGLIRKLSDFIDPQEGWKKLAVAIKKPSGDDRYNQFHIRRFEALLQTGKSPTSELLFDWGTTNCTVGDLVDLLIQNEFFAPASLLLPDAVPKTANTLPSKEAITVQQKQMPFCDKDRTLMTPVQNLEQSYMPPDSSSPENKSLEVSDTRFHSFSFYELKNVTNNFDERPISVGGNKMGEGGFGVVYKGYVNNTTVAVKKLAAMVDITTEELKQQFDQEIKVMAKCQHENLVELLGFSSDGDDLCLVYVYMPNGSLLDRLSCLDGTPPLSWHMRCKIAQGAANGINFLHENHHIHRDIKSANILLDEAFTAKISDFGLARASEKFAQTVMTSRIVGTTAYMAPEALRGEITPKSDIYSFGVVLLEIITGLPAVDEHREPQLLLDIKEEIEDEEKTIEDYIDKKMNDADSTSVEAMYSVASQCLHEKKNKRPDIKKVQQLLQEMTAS
# Method: RBC HotSpot Kinase Assay, IRAK4
# Assay type: biochemical
# Design: purchased RBC (Reaction Biology) HotSpot assay
# Experimental context: HotSpot functional assay, isolated kinase enzyme, 33P-ATP
Endpoint: pIC50
Give bare numbers, as −log10 of the molar value.

[ask] Query (molecule): COc1cc2ncc(-c3cccc(N[C@H]4CNC[C@@H]4F)n3)n2nc1N1CCCC1=O [Compound 25a] ; field requested: pIC50
[reply] 6.47

[ask] // repeat for COc1cc2ncc(-c3nc(N[C@H]4CNC[C@@H]4F)c(F)cc3F)n2nc1C1CCC1 [Compound 13a] and report
[reply] 9.00

[ask] // repeat for COc1cc2ncc(-c3nc(N[C@H]4CNCC[C@@H]4F)c(F)cc3F)n2nc1C(C)(O)C(F)(F)F (single isomer, unassigned) [Compound 77a] and report
[reply] 7.80

[ask] // repeat for COc1ccc(N[C@@H]2CCCNC2)nc1-c1cnc2cc(OC)c(C3CC3)nn12 [Compound 32a] and report
[reply] 6.07

[ask] // repeat for COc1cc2ncc(-c3nc(N[C@@H]4CCCNC4)c(F)cc3F)n2nc1C1CCCCC1 [Compound 20a] and report
[reply] 8.22

[ask] // repeat for COc1cc2ncc(-c3ccc(C)c(N[C@H]4CNCC[C@@H]4F)n3)n2nc1C1CC1 [Compound 38a] and report
[reply] 5.15

[ask] // repeat for COc1cc2ncc(-c3cccc(N[C@H]4CNCC[C@@H]4F)n3)n2nc1N1CCCC1=O [Compound 26a] and report
[reply] 6.63

[ask] // repeat for COc1cc2ncc(-c3nc(N[C@H]4CNC[C@@H]4F)c(F)cc3F)n2nc1C1CCCCC1 [Compound 19a] and report
[reply] 8.52

List pIC50 for every entry below, keeping the order given.
1. COc1cc2ncc(-c3nc(N[C@@H]4CCCNC4)ccc3F)n2nc1C1CC1 [Compound 44a]
2. COc1cc2ncc(-c3nc(N[C@H]4CNC[C@@H]4F)c(F)cc3F)n2nc1C1CC2(CCC2)C1 [Compound 12a]
3. COc1cc2ncc(-c3nc(N[C@@H]4CCCNC4)c(F)cc3F)n2nc1N1CCCC1=O [Compound 23a]
4. COc1cc2ncc(-c3nc(N[C@@H]4CCCNC4)c(F)cc3F)n2nc1C1CC(C)(C)C1

[reply]
[8.70, 8.22, 7.32, 7.89]

[ask] Query (molecule): COc1cc2ncc(-c3nc(N[C@@H]4CCCNC4)c(F)cc3F)n2nc1C(C)(O)C(F)(F)F (single isomer, unassigned) [Compound 79a] ; field requested: pIC50
[reply] 6.28

====

# System: UniProt:P51617
# Sequence (P51617 whole entry): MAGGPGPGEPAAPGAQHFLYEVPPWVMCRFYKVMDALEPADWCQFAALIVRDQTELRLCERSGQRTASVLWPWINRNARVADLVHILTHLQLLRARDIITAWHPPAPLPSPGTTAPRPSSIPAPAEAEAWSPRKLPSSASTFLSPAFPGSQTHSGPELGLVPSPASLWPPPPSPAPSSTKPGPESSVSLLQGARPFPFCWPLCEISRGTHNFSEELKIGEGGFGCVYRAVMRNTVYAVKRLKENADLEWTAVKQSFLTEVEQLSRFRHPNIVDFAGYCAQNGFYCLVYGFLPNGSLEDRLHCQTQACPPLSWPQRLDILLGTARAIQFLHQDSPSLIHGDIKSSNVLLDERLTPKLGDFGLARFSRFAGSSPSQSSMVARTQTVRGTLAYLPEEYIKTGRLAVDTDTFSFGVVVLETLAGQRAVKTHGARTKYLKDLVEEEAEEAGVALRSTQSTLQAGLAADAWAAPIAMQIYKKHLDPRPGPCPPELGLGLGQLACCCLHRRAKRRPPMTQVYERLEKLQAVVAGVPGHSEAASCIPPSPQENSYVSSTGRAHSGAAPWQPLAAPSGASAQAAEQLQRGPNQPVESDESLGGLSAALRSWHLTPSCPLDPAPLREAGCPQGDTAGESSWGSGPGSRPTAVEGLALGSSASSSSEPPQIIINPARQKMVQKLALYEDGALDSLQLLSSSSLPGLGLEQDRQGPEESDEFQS
# Method: RBC HotSpot Kinase Assay, IRAK1
# Experimental context: HotSpot functional assay, isolated kinase enzyme, 33P-ATP
Endpoint: IC50

A selection of reference data follows.
[ask] Query (compound): COc1cc2ncc(-c3ccc(C)c(N[C@H]4CNCC[C@@H]4F)n3)n2nc1C1CC1 [Compound 38a] ; field requested: IC50
[reply] > 10000 nM

[ask] // repeat for COc1cc2ncc(-c3nc(N[C@@H]4CCCNC4)c(F)cc3F)n2nc1C1CCC1 [Compound 14a] and report
[reply] 12 nM

[ask] // repeat for COc1cc2ncc(-c3nc(N[C@H]4CNCC[C@@H]4F)ccc3C#N)n2nc1C1CC1 [Compound 31a] and report
[reply] 1110 nM

[ask] // repeat for COc1cc2ncc(-c3ccc(C#N)c(N[C@@H]4CCCNC4)n3)n2nc1C1CC1 [Compound 28a] and report
[reply] 836 nM

[ask] // repeat for COc1ccc(-c2cnc3cc(OC)c(C4CC4)nn23)nc1N[C@H]1CNC[C@@H]1F [Compound 33a] and report
[reply] > 10000 nM

[ask] // repeat for COc1cc2ncc(-c3ccc(C#N)c(N[C@H]4CNCC[C@@H]4F)n3)n2nc1C1CC1 [Compound 29a] and report
[reply] 10 nM

List IC50 for every entry below, keeping the order given.
1. COc1cc2ncc(-c3cc(C)cc(N[C@@H]4CCCNC4)n3)n2nc1C1CC1 [Compound 51a]
2. COc1cc2ncc(-c3cc(C4CC4)cc(N[C@H]4CNC[C@@H]4F)n3)n2nc1C1CC1 [Compound 57a]

[reply]
1: > 10000 nM; 2: > 10000 nM
